Provenance of the data: patent US6426229B1

Test: Compression strength (hardening property) of powder stored under load for 2 months
Type: physicochemical
Details: Load 100 (table head [Kg]; text 100 g/cm^2); 20-30° C., relative humidity 40-70%
Compression strength after stored for 2 months for assorted compounds
MEASUREMENT_KIND: Compression strength after stored for 2 months (Kg/cm^2)

COMPOUND: O=C([O-])C[C@H](NCC(O)CN[C@@H](CC(=O)[O-])C(=O)[O-])C(=O)[O-].[Na+].[Na+].[Na+].[Na+] [compound 20, reference compound]
DISPLAY_UNIT: Kg/cm^2
RECORDED_VALUE: 2.7
--
COMPOUND: O=C(O)CN(CCS(=O)(=O)O)CC(=O)O [compound 12, taurine-N,N-diacetic acid, reference compound]
DISPLAY_UNIT: Kg/cm^2
RECORDED_VALUE: 3.3
--
COMPOUND: O=C(O)C[C@H](NCCN[C@@H](CC(=O)O)C(=O)O)C(=O)O [Example 66, ethylenediaminedisuccinic acid]
DISPLAY_UNIT: Kg/cm^2
RECORDED_VALUE: 0.8
